Please respond with reported IC50 for every item in the list.
# Tgt: UniProt:O00763
# Sequence (O00763 whole entry, species assumed): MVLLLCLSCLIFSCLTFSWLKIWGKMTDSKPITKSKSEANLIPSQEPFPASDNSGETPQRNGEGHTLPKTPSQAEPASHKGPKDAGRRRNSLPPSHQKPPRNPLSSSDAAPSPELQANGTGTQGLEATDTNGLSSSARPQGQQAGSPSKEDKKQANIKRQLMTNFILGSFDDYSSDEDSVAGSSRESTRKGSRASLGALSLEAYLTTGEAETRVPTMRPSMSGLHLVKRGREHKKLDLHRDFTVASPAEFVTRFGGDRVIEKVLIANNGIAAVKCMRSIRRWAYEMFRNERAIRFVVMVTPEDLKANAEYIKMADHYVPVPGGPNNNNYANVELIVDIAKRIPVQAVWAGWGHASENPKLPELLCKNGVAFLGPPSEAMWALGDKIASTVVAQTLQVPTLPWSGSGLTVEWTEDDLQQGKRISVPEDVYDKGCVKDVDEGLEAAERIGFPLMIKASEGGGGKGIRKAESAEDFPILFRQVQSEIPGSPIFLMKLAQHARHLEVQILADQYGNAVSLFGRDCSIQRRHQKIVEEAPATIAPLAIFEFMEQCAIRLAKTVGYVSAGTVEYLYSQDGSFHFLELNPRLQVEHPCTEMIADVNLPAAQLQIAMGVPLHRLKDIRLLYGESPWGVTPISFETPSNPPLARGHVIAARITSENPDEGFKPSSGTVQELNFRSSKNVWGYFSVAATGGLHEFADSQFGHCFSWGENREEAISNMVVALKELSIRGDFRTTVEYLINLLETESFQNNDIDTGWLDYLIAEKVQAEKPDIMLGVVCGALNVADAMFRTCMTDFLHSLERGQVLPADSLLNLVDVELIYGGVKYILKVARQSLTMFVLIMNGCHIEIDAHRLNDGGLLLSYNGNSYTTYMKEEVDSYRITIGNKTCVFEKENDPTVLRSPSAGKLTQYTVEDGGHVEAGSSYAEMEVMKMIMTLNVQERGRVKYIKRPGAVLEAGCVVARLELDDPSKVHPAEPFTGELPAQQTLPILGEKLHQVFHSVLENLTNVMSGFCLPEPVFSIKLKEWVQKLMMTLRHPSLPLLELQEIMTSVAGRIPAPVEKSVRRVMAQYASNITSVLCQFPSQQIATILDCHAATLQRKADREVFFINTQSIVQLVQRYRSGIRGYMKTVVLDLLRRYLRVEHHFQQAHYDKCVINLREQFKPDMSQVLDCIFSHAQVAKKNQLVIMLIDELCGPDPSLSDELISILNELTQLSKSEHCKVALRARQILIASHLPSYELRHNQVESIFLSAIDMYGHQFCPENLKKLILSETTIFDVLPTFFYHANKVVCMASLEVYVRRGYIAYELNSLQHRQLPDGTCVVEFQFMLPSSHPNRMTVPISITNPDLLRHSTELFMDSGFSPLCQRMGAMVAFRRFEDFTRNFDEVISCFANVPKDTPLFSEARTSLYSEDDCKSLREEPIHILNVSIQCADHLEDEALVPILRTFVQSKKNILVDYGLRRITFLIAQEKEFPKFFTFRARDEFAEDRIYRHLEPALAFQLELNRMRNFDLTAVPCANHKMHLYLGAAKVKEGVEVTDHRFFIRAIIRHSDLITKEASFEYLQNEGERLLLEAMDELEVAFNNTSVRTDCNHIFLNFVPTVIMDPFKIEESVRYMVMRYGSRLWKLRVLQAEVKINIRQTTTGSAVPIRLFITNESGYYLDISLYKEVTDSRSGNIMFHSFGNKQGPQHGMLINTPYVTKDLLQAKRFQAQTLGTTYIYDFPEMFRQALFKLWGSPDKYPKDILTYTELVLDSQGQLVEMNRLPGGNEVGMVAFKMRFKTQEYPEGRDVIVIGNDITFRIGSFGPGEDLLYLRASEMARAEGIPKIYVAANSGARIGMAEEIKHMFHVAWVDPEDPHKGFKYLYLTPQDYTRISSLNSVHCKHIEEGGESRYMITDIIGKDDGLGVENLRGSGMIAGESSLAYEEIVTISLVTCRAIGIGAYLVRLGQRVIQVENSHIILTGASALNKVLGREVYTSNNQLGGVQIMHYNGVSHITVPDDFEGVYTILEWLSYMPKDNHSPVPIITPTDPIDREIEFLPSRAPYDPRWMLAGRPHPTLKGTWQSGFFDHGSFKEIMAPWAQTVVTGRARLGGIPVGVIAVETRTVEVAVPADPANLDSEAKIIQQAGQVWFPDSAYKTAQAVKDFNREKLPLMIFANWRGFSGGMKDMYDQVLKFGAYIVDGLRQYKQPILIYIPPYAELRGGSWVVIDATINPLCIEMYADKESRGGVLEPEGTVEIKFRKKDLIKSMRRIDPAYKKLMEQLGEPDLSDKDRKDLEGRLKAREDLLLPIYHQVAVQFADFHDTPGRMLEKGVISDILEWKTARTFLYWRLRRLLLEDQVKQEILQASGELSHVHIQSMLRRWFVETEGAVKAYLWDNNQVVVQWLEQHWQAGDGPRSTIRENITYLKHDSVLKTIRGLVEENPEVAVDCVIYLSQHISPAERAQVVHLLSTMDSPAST

# input Which IC50 reading was recorded for the compound COc1ccccc1C(Cn1c(=O)n(C(C)(C)C(=O)O)c(=O)c2c(C)c(-c3ncco3)sc21)OC1CC2COCC2C1 (stereo not drawn) ?
# output 4.24 nM

# input Would you kindly repeat that for COc1ccccc1C(Cn1c(=O)n(C(C)(C)C(=O)O)c(=O)c2c(C)c(-c3ncco3)sc21)O[C@@H]1C[C@@H]2CC(O)(C#N)C[C@@H]2C1 (stereo partly drawn) ?
# output 5.4 nM

# input # iterate: CCC1(O)C[C@H]2C[C@@H](OC(Cn3c(=O)n(C(C)(C)C(=O)O)c(=O)c4c(C)c(-c5ncco5)sc43)c3ccccc3OC)C[C@H]2C1 (stereo partly drawn)
# output 5.45 nM

# input Also COc1ccccc1C(Cn1c(=O)n(C(C)(C)C(=O)O)c(=O)c2c(C)c(-c3ncco3)sc21)O[C@@H]1C[C@@H]2CC(O)(CC#N)C[C@@H]2C1 (stereo partly drawn) , if possible.
# output 4.8 nM

# input COc1ccccc1C(Cn1c(=O)n(C(C)(C)C(=O)O)c(=O)c2c(C)c(-c3ncco3)sc21)OC1CC2CN(S(C)(=O)=O)CC2C1 (stereo not drawn) , same question.
# output 1.76 nM

# input Same question, COc1ccccc1C(Cn1c(=O)n(C(C)(C)C(=O)O)c(=O)c2c(C)c(-c3ncco3)sc21)O[C@@H]1C[C@@H]2CC(F)(F)C[C@@H]2C1 (stereo partly drawn) this time
# output 4.07 nM

---

IC50, ACC1 (Homo sapiens (Human)), per-entry values.

# input Recorded IC50 of COc1ccccc1C(Cn1c(=O)n(C(C)(C)C(=O)O)c(=O)c2c(C)c(-c3ncco3)sc21)O[C@@H]1C[C@@H]2CC(O)(C(F)(F)F)C[C@@H]2C1 (stereo partly drawn) [Example 18] , please.
# output 0.89 nM

# input # repeat for COc1ccccc1C(Cn1c(=O)n(C(C)(C)C(=O)O)c(=O)c2c(C)c(-c3ncco3)sc21)O[C@@H]1C[C@@H]2C[C@@H](S(C)(=O)=O)C[C@@H]2C1 (stereo partly drawn) [Example 29]
# output 0.47 nM

# input Now the same for COc1ccccc1C(Cn1c(=O)n(C(C)(C)C(=O)O)c(=O)c2c(C)c(-c3ncco3)sc21)O[C@@H]1C[C@@H]2CC(O)(CC#N)C[C@@H]2C1 (stereo partly drawn) [Example 27]
# output 1.56 nM

# input What about this compound? COc1ccccc1C(Cn1c(=O)n(C(C)(C)C(=O)O)c(=O)c2c(C)c(-c3ncco3)sc21)O[C@@H]1C[C@@H]2CC(O)(C3CC3)C[C@@H]2C1 (stereo partly drawn) [Example 23]
# output 0.67 nM

# input Also, COc1ccccc1C(Cn1c(=O)n(C(C)(C)C(=O)O)c(=O)c2c(C)c(-c3ncco3)sc21)OC1CC2CN(S(C)(=O)=O)CC2C1 (stereo not drawn) [Example 10] please.
# output 0.81 nM

# input Here is the next compound: COc1ccccc1C(Cn1c(=O)n(C(C)(C)C(=O)O)c(=O)c2c(C)c(-c3ncco3)sc21)O[C@H]1C[C@H]2CC(O)C(O)[C@H]2C1 (stereo partly drawn) [Example 22]
# output 1.55 nM
